These measurements were taken from patent US10011573B2.

- testedTarget: androgen receptor (AR) (Homo sapiens, UniProt P10275, T878A)
- Sequence (P10275 whole entry T878A): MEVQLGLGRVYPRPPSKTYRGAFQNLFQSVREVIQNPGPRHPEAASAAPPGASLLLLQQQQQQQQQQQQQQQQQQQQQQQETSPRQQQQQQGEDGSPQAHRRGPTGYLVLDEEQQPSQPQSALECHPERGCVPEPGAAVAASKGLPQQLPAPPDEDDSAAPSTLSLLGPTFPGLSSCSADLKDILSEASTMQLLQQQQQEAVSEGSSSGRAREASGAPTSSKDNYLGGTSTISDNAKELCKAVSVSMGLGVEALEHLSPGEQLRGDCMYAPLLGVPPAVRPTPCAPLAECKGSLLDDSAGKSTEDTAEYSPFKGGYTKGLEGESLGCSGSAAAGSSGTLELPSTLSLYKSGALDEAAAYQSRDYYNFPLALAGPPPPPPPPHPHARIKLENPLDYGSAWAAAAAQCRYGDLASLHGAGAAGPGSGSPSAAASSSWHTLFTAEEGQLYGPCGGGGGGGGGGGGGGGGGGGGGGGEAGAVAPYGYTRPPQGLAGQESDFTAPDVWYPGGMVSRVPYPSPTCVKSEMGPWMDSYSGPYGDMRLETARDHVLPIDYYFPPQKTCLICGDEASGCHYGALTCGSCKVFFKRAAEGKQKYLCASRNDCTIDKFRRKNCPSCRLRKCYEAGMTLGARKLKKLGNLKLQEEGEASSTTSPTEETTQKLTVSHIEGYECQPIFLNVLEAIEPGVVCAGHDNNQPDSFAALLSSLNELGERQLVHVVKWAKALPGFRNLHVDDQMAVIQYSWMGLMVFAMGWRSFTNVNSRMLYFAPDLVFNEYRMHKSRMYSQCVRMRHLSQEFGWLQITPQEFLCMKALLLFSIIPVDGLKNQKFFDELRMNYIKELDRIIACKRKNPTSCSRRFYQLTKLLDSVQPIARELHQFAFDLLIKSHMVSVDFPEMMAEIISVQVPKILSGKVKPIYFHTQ
- protocolDetails: eGFP cellular AR transcription assay (LNCaP eGFP cells, LN-ARR2PB-eGFP)
- condition: LNCaP, read-out: % Inhibition (3 μM)
Kindly state inhibition at 3 µM for each of the entries shown.
Numbers only, in %.

# compound, testedTarget, quantityUnit, inhibition at 3 µM
rows = [
    ("CC1CCCN(c2nc(-c3ccc(O)cc3O)cs2)C1 (stereo not drawn)", "androgen receptor (AR) (Homo sapiens, UniProt P10275, T878A)", "%", 60),
    ("Oc1ccccc1-c1ccc2cccnc2n1", "androgen receptor (AR) (Homo sapiens, UniProt P10275, T878A)", "%", 27.1),
    ("FC(F)(F)c1cccc(-c2csc(-c3ccncc3)n2)c1", "androgen receptor (AR) (Homo sapiens, UniProt P10275, T878A)", "%", 107),
]

Give inhibition at 3 µM for each of the items listed below.
1. N#Cc1ccc(-c2ccc(N3CCOCC3)s2)cc1
2. Cc1ccc(-c2csc(N3CCOCC3)n2)cc1C
3. c1sc(N2CCOCC2)nc1C1CCCC1
4. O=C(O)c1csc(N2CCOCC2)n1
5. c1sc(N2CCOCC2)nc1C1CCCCC1
6. Nc1nc(-c2ccc3ccccc3c2)cs1

1. 111
2. 40
3. 22
4. 0
5. 33
6. 67.2

Give inhibition at 3 µM for each of the items listed below.
1. CNc1nc(-c2ccc3ccccc3c2)cs1
2. c1ccc2nc(N3CCCCC3)ccc2c1
3. c1ccc2nc(-c3ccncc3)ccc2c1
4. COc1cc(F)ccc1-c1csc(N2CCOCC2)n1
5. NC(=S)N/N=C1\CCCc2ccccc21

91.5
89.4
62
103
45.5

Give inhibition at 3 µM for each of the items listed below.
1. Oc1ccc2nc(N3CCOCC3)sc2c1
2. c1ccc(-c2csc(N3CCOCC3)n2)cc1

57.5
110

Give inhibition at 3 µM for each of the items listed below.
1. COc1ccccc1-c1csc(N2CCOCC2)n1
2. NC(=S)NN=C1c2ccccc2-c2ccccc21

1: 118; 2: 45.8
